# TESTED_TARGET: VDR (Homo sapiens)
# Construct: -CMV-VDR-LBD coding for the hinge region and
# Sequence (P11473 127-423 limits assumed): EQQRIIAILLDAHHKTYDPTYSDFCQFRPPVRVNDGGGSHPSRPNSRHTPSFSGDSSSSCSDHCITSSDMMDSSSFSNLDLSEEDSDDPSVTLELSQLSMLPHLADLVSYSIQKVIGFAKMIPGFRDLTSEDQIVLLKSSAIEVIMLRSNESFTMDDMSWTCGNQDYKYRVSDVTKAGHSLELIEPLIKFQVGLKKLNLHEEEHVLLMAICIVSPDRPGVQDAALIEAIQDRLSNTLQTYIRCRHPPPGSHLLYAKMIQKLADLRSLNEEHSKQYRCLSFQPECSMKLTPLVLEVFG
# ASSAY_INFO: Gal4‐VDR hybrid reporter gene assay, antagonist mode (vs. 0.3 µM calcitriol (2))
# CONDITION: dark‐adapted (E)‐state; vs. 0.3 µM 2 (calcitriol); read-out: VDR modulation dark (E): IC50 (antagonist mode)
PROPERTY_NAME: IC50 (µM)
One number for each entry, in µM.

GET IC50 where system = VDR (Homo sapiens) and item = CCCc1cc(C(O)(CC)CC)ccc1-c1ccc(/N=N/c2ccc3cc(C(=O)O)ccc3c2)cc1C [compound 10] 0.6

* * *

# TESTED_TARGET: VDR (Homo sapiens)
# Construct: -CMV-VDR-LBD coding for the hinge region and; expressed in transfected cells; host or cells: HEK293T
# ASSAY_INFO: Gal4‐VDR hybrid reporter gene assay, agonist mode
# Type: cell-based
# CONDITION: (Z)‐state maintained with Cell‐Disco (370 nm); HEK293T cells; mean±S.E.M., n≥3; read-out: VDR modulation light-activated (Z): EC50
# Method: FIGURE 2 Development and characterization of the light‐activated vitamin D mimetic photo‐vitD (10). (a) Structure activity relationship of photo‐switchable VDR agonists 4–10. Compounds were tested in a cellular Gal4‐VDR hybrid reporter gene assay. Relative activation is normalized to the effect of 2 (1 µM) set as 100% activation. […] Absorbance was measured at 351 nm with a 25 µM solution in DMSO, one cycle is 30 sec. […] (E)/(Z) ratios were measured by NMR. […]
Kindly supply the reported pEC50 values for the records listed here.
Answers are plain numbers, as −log10 of the molar value.

Consider the reported pEC50 for these compounds:
INSERT INTO results (record_smiles, tested_target, reported_result) VALUES
  ('CCCc1cc(C(O)(CC)CC)ccc1-c1ccc(/N=N/c2ccc3cc(C(=O)O)ccc3c2)cc1C', 'VDR (Homo sapiens)', 6.77),
  ('CCCc1cc(C(O)(CC)CC)ccc1-c1cc(/N=N/c2ccc(CO)c(CO)c2)ccc1C', 'VDR (Homo sapiens)', 6.85),
  ('CCCCc1cc(C(O)(CC)CC)ccc1-c1cc(/N=N/c2ccc(CO)c(CO)c2)ccc1C', 'VDR (Homo sapiens)', 5.96);

Count: 3. Required value per item: pEC50.
1. CCCc1cc(C(O)(CC)CC)ccc1-c1cc(/N=N/c2ccc(C(=O)O)c(O)c2)ccc1C
2. CCC(O)(CC)c1ccc(-c2cc(/N=N/c3ccc(CO)c(CO)c3)ccc2C)c(C)c1
3. CCCc1cc(C(O)(CC)CC)ccc1-c1ccc(/N=N/c2ccc(C(=O)O)c(O)c2)cc1C

1: 6.51; 2: 6.04; 3: 5.85

Recorded values, source paper PMC13360702.
